# System: UACC-257 melanoma
# Experimental protocol: NCI-60 one-dose screen, 48 h (100 = growth as untreated, 0 = no growth, -100 = all killed)
# Conditions used: 10 µM unless noted
This is part of a sample that, as a whole, favours compounds with a hit. Of some 83,000 tested, about 20% had one in any assay.
With a cut-off of 60%, any growth strictly below it is called TRUE; any growth meeting it or above is called FALSE.

Record excerpt, results attached:
- Smi: "COC(=O)[C@@H](CCCCNC(=O)[C@]12CCC(C)(C)C[C@@H]1C1=CC[C@@H]3[C@@]4(C)C/C(=C/c5ccco5)C(=O)C(C)(C)[C@@H]4CC[C@@]3(C)[C@]1(C)CC2)NC(=O)[C@]12CCC(C)(C)C[C@@H]1C1=CC[C@@H]3[C@@]4(C)C/C(=C/c5ccco5)C(=O)C(C)(C)[C@@H]4CC[C@@]3(C)[C@]1(C)CC2"
  Classification: "FALSE"
- Smi: "c1cnc2c(-c3nc4ccc5[nH]ncc5c4c4c3CCCC4)c[nH]c2c1"
  Classification: "FALSE"
- Smi: "C=CCSc1nnc(NC(=O)CCl)s1"
  Classification: "FALSE"
- Smi: "O=C(Nc1cccc(Cl)c1)Nc1cccc(Cn2c(=O)[nH]c3ccc(Oc4ncccn4)cc3c2=O)c1"
  Classification: "TRUE"
- Smi: "CCN(CC)c1ccc(\\C=N/N=C(N)/C(N)=N\\N=C/c2ccc(N(CC)CC)cc2)cc1"
  Classification: "FALSE"

Request: # strict comparison: is reported growth < 60%? input = O=C(N/N=C/c1c(Cl)cccc1Cl)c1cccnc1Nc1cccc(C(F)(F)F)c1
Response: TRUE

Request: Repeat with CCCC/C=C/[C@@H]1C[C@H]1CCO
Response: FALSE

Request: Repeat with CCOC(=O)c1csc(NC(=O)COc2ccc(/C=C3\Oc4ccccc4C3=O)cc2)n1
Response: FALSE

Request: Repeat with COc1ccc2c(c1)CC[C@H](O)/C2=C/c1cc(OC)c(OC)c(OC)c1
Response: TRUE
